# Ki per record follows
- target entity: Adrenergic receptor alpha-2 (Homo sapiens, UniProt P08913+P18825+P18089)
- experiment description: Binding affinity for Alpha-2 adrenergic receptor of CHO-C10 membrane preparation
- Set-up: species or system Cricetulus griseus
recorded metric: Ki (nM)

smiles structure	target entity	scale unit	value
N=C(N)Nc1ccc2nccnc2c1Br	Adrenergic receptor alpha-2 (Homo sapiens, UniProt P08913+P18825+P18089)	nM	41
CN(C1=NCCN1)c1ccc2c(c1)OCCO2	Adrenergic receptor alpha-2 (Homo sapiens, UniProt P08913+P18825+P18089)	nM	180
Cc1c(NC2=NCCN2)ccc2c1OCCO2	Adrenergic receptor alpha-2 (Homo sapiens, UniProt P08913+P18825+P18089)	nM	0.25
Cc1c(NC2=NCCN2)ccc2c1NCCN2	Adrenergic receptor alpha-2 (Homo sapiens, UniProt P08913+P18825+P18089)	nM	9.6
COc1ccc(NC2=NCCN2)c(C)c1OC	Adrenergic receptor alpha-2 (Homo sapiens, UniProt P08913+P18825+P18089)	nM	5.2
Cc1c(NC2=NCCN2)ccc2c1NCCO2	Adrenergic receptor alpha-2 (Homo sapiens, UniProt P08913+P18825+P18089)	nM	1.2
C/N=C(\NC)Nc1ccc2nccnc2c1Br	Adrenergic receptor alpha-2 (Homo sapiens, UniProt P08913+P18825+P18089)	nM	5300
Cc1ccccc1N=C1NCCN1	Adrenergic receptor alpha-2 (Homo sapiens, UniProt P08913+P18825+P18089)	nM	7.8
c1cnc2cc(NC3=NCCN3)ccc2n1	Adrenergic receptor alpha-2 (Homo sapiens, UniProt P08913+P18825+P18089)	nM	41
